Molecular target: T1, recombinant N-terminal His-tag HGFA serine protease domain (UniProt Q04756 373-655)
T1 sequence (looked up): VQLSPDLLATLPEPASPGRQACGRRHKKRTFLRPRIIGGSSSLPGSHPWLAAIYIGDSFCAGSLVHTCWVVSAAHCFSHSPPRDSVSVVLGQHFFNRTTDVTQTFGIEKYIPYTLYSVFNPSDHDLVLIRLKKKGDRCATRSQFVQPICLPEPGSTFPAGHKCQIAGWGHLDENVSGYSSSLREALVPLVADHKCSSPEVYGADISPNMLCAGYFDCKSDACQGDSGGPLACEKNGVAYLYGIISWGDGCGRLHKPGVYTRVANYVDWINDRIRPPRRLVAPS
Assay: cell-based or functional assay
Positions of bridges follow the written chain, without caps; N, C: chain ends. Non-standard residues stand in square brackets, D forms with d. No end group written: not given here. kbt = C-terminal Arg ketobenzothiazole; kt = C-terminal Arg ketothiazole
assay readout: HGFA IC50 (nM)
Lab book: enter the figure in nM, no units written.

{"columns": ["binder", "HGFA IC50 (nM)"],
 "data": [
  ["Ac-DMKR-kbt (lactam 1-3; not fully specified; printed as Cyclo(DMK)R-kbt; also: N-terminal acetyl described as 6-acetamido) [Cyclo(DMK)R-kbt, VD3173]", 3240],
  ["Ac-Leu-Leu-Arg-kt [Ac-LLR-kt, ZFH6201]", 506],
  ["Ac-DQKR-kbt (lactam 1-3; also: N-terminal acetyl described as 6-acetamido) [Cyclo(DQK)R-kbt, VD3152]", 16100],
  ["Ac-[dW]-Phe-Arg-kbt [Ac-dWFR-kbt, PK-1-89A1]", 346],
  ["Ac-DLKR-kbt (lactam 1-3; not fully specified; printed as Cyclo(DLK)R-kbt; also: N-terminal acetyl described as 6-acetamido) [Cyclo(DLK)R-kbt, VD2173]", 5260]
]}

Look up HGFA IC50 of Ac-KQLR-kbt [Ac-KQLR-kbt, ZFH7006] and report it.
60

Return value of HGFA IC50 for input Leu-Leu-Arg-{kbt-Val-NH2} (also: N-terminal cap inconsistent in filing (H or Ac)) [H-LLR-kbt V-amide ZFH7182] , no commentary.
44

Look up and report measured HGFA IC50 for this entry: Ac-SKLR-{kbt-Val-NH2} [Ac-SKLR kbt V-amide, ZFH7116]
26

Retrieve HGFA IC50 measured for Ac-WLFR-kbt [Ac-WLFR-kbt, ZFH7064] and print it.
266
